assay: Cytotoxicity against human MT4 cells after 5 days by MTT assay; format: cell-based
READOUT: CC50 at 120 h (nM)
Hi! Could you send only the number? It should be in nM, unit omitted.

INSERT INTO results (compound_structure, units_symbol, recorded_value) VALUES
  ('Cc1cc(C)c(Oc2nc(NCCn3ccc(=O)[nH]c3=O)ncc2Cl)c(C)c1', 'nM', 2490);

Let us examine a further case.
Sample `Cc1cc(C)c(Oc2nc(Cl)ncc2NCCn2ccc(=O)[nH]c2=O)c(C)c1` ; CC50 at 120 h observed: 2890

###

test: Solubility of the compound in phosphate buffer at pH 2 after 2 hrs by UV-HPLC method; format: physicochemical
READOUT: solubility at 2 h (µg/mL)
Output spec: scalar in µg/mL, unitless text.

Lab note: `Cc1cc(/C=C/C#N)cc(C)c1Oc1cc(N)nc(NCCn2ccc(=O)[nH]c2=O)n1` gave solubility at 2 h of 91.7
